SYSTEM TESTED: T1, mouse P2X7 (mouse, UniProt Q9Z1M0 1-595)
T1 construct: on transfected CHO or Hek293 cells, or endogenous on Yac-1 cells; also called mP2X7; mouse purinoceptor P2X7
T1 sequence: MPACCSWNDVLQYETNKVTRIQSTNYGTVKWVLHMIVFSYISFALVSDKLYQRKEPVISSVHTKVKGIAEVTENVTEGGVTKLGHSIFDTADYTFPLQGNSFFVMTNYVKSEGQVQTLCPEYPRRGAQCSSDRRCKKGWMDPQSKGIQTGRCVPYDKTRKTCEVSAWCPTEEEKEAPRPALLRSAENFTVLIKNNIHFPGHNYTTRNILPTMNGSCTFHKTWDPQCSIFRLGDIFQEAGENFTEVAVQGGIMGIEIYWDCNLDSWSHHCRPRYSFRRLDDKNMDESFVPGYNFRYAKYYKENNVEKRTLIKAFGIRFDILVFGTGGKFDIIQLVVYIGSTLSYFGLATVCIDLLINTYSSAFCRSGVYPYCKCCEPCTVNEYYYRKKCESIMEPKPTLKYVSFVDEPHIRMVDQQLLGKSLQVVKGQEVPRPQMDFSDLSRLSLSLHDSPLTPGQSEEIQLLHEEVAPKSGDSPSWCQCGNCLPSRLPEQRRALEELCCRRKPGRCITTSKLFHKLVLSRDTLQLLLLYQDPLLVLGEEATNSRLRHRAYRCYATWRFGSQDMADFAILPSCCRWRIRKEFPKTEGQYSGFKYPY
TEST NAME: phage ELISA, mP2X7-CHO vs control CHO cells
METRIC NAME: absorption ratio (ELISA) (ratio)
Note: unit ratio is implicit; provide only the numeric part.

# BINDER, absorption ratio (ELISA) [ratio]
records = [
    ("P2X7PMP8H6 (VHH, family 5, 2; on phage or c-myc/His6-tagged in assays) VHH: EVQLVESGGGLVQAGGSLRLSCAASGSFFRVNNMAWYRQAPGKQRELVADITRGDRTNYADSVNGRFTISRDNVRNTVYLQMNGLKPEDTAVYYCYARIELGPLVPRDYWGQGTQVTVSS", 17),
    ("P2X7PMP1G6 (VHH, family 15; on phage or c-myc/His6-tagged in assays) VHH: EVQLVESGGGLVQAGGSLRLSCAASPGAFSSFNMGWFRQTPGKEREFVAATSWSDISTYYADSVKGRFTISRDNAKNTVTLEMNSLKPEDTAVYYCAAGYYRGGYLGYRLTLEGSYDVWGQGTQVTVSS", 12),
    ("P2X7PMP8E6 (VHH, family 5, 2; on phage or c-myc/His6-tagged in assays) VHH: EVQLVESGGGLVQAGGPLRLSCAASGNFFRVNTMAWYRQAPGKQRELVADITRGDRTNYADTVNGRFTISRDNVRNTVYLQMNGLKPEDTAAYYCYARIELGVLEPRDYWGQGTQVTVSS", 12),
]

Please find the next binder below.
Query: Let me know recorded absorption ratio (ELISA) for P2X7PMP18C1 (VHH, family 25; on phage or c-myc/His6-tagged in assays) VHH: EVQLVESGGDLVQPGGSLRLSCVASGFALEEHAIGWFRQAPGKEREGVSLSSYLGAAYYATSVKGRFTISRDNAKNTVTLQMNSLKPEDTAVYYCARGHFTYDDGRITIRSVDYWGKGTLVTVSS , thanks.
Response: 18

FYI, the data here is from patent US20160264664A1.
